Below, each entry is listed with its recorded growth inhibition.
# test.details: NCI Yeast Anticancer Drug Screen. Data for the cln2 rad14 strain (AID 165);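 further: 0% = growth equal to vehicle treated cultures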
# test.conditions: S. cerevisiae cln2 rad14 strain, at 50.0 µM (retest, dose inferred, filed as 5.0), hits give high values
This is part of a sample that, as a whole, favours compounds with a hit. Of some 79,000 tested, about 15% had one in any assay.

molecule | growth inhibition, %
O.O.O=C(O)C(O)C(O)C(OC1OC(CO)C(O)C(O)C1O)C(O)CO.O=C(O)C(O)C(O)C(OC1OC(CO)C(O)C(O)C1O)C(O)CO.[NH-]C1CCCCC1[NH-].[Pt+2] (centres undefined) | 12
O=C1C(c2ccccc2)=[N+]([O-])c2ccccc21 | 12
CN(Cc1cnc2nc(N)nc(N)c2n1)c1ccc(C(=O)NC(CCC(=O)O)C(=O)O)cc1 (centres undefined) | -10
C=C(C)C(=O)OC1CC2=CC(CC3(C)OC3C3OC(=O)C(=C)C13)OC2=O (centres undefined) | 15

* * *

# test.details: NCI Yeast Anticancer Drug Screen. Data for the bub3 strain (AID 167)
# test.conditions: S. cerevisiae bub3 mutant strain, at 50.0 µM (retest, dose inferred, filed as 5.0)
This is part of a sample that, as a whole, favours compounds with a hit. Of some 79,000 tested, about 15% had one in any assay. Calls of active or inactive are those of the source. Rule as the data show it: active = growth inhibition above about 70%; inactive = the rest.
Outcomes: TRUE (active), FALSE (inactive)

compound | class.label
O=CNNC(=O)Nc1ccc(Cl)cc1 | FALSE
O=C(Nc1ccccc1-c1nn(C(=S)Nc2ccccc2)c(=S)n(C(=S)Nc2ccccc2)c1=O)C(F)(F)F | FALSE
Cc1ccc(N=C(N)NN=C(c2ccc(Cl)cc2)c2ccc(Cl)cc2)cc1 | FALSE
CC1CCC(C(C)C2C(O)CC3C4CC=C5CC(O)CCC5(C)C4CCC32C)NC1 (stereo not given) | TRUE
CCCN(CCC)CC(O)c1cc(-c2ccccc2)nc2c(Cl)cc(Cl)cc12 (stereo not given) | TRUE

* * *

# test.details: NCI Yeast Anticancer Drug Screen. Data for the rad50 strain (AID 155);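 further: 0% = growth of vehicle-only cultures of the same strain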
# test.conditions: S. cerevisiae rad50 strain growth inhibition; at 5.0 µM (retest, dose inferred, filed as 0.5)
This is part of a sample that, as a whole, favours compounds with a hit. Of some 79,000 tested, about 15% had one in any assay. Active and inactive are the calls of the source. No stated cut-off is given here; in the data, active means growth inhibition above about 70%; inactive means the rest.
Classes used: Yes = active, No = inactive

compound | class.label
C/C(=N\NC(=S)N(C)C1CCCCC1)c1ccc2ccccc2n1 | No
C1=NCCN=Cc2ccccc2NCCNc2ccccc21 | No
Oc1c(Br)cc(Cl)cc1C(c1cc(Cl)cc(Br)c1O)C(Cl)(Cl)Cl | No
Nc1c(/C=C/c2cc3cc(C4=NCCN4)ccc3o2)[nH]c2cc(C3=NCCN3)ccc12 | No
CS(=O)(=O)OCCCN(CCCOS(C)(=O)=O)c1ccc(C=Nc2ccc(-c3csc(COc4ccc(Br)cc4Br)n3)cc2)cc1 | No
Cc1ccc(NS(=O)(=O)c2ccc(C)cc2)cc1 | No
Cc1nc(-n2nc(-c3ccccc3)cc2-c2ccccc2)sc1C(/C=C\c1ccc([N+](=O)[O-])cc1)=N/NC(=S)NN | No
Cc1ccc(N=c2cc(-c3ccccc3)oc3ccccc23)c(C)c1 | No
COc1ccccc1C1SC(c2ccccc2)(c2ccccc2)OC1=O (configuration not stated) | No
O/N=C(/C[n+]1csc2ccccc21)c1ccccc1 | No
O=C(O)C(O)C(O)C(O)C(O)c1nc2ccccc2s1 (configuration not stated) | No
CCCCCC=C(c1cc(Br)cc(C(=O)O)c1O)c1cc(Br)cc(C(=O)O)c1O | No
O/N=C/c1cc(Cl)cc(Cl)c1O | Yes
Cc1ccc(N=NC(C(=O)c2ccccc2)C(=O)c2ccccc2)cc1 | No
CCc1ccccc1NC(=O)C1=C(C)NC(C)=C(C(=O)Nc2c(CC)cccc2CC)C1c1ccc2c(c1)OCO2 (configuration not stated) | No
COC(CCC[N+](C)(C)C)CC[N+](C)(C)C (configuration not stated) | No
CC(=O)[O-].CC(=O)[O-].CC(=O)[O-].CC(=O)[O-].Cn1c(=O)c2[nH]cnc2n(C)c1=O.Cn1c(=O)c2[nH]cnc2n(C)c1=O.[Rh+2].[Rh+2] | No
NC(=S)N/N=C/c1ccc(Cl)s1 | No
Cc1ccsc1/C=N/Nc1ccc2ccccc2n1 | No
NC(CCCNc1nc(O)cc(=O)[nH]1)C(=O)O (configuration not stated) | No
Cc1cccc2cc3c(cc12)c(C)cc1ccccc13 | No
CC(CCNCCC#N)CC(C)(C)C (configuration not stated) | No

* * *

# test.details: NCI Yeast Anticancer Drug Screen. Data for the rad50 strain (AID 155);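 further: 0% = growth of vehicle-only cultures of the same strain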
# test.conditions: S. cerevisiae rad50 strain growth inhibition; at 50.0 µM (retest, dose inferred, filed as 5.0)
The panel holds about 79,000 compounds, 15% with a hit somewhere; the sample as a whole holds those more often. Active and inactive are the calls of the source. Rule as the data show it: active = growth inhibition above about 70%; inactive = the rest.
Outcomes: 1 for active, 0 for inactive

compound.string | class.label
O=[N+]([O-])c1ccc(Cl)cc1C=NC12CC3CC(CC(C3)C1)C2 | 0
CC(C)(C)c1ccc(OC(=O)Nc2ccc(Cl)cc2[N+](=O)[O-])c(Br)c1 | 0
CCN(CC)C(=O)C1(OC(C)=O)CCCCC1 | 0
Cc1ccc(O)c(C(c2cccc(C(c3cc(C)ccc3O)c3cc(C)ccc3O)c2)c2cc(C)ccc2O)c1 | 1
[NH-]c1ccccc1[S-].[NH-]c1ccccc1[S-].[Zn] | 1

* * *

# test.details: NCI Yeast Anticancer Drug Screen. Data for the mec2-1 strain (AID 157)
# test.conditions: S. cerevisiae mec2-1 strain, at 50.0 µM
The panel holds about 79,000 compounds, 15% with a hit somewhere; the sample as a whole holds those more often. The source made the active and inactive calls. No stated cut-off is given here; in the data, active means growth inhibition above about 70%; inactive means the rest.
Classes used: active, inactive

compound | class.label
CCCCCCCC/C=C\CCCCCCCCN1CCOCC1 | active
O=C(/C=C/c1cccc(Cl)c1)c1ccccc1 | active
CC(SCc1ccccc1)C(=O)O (configuration not stated) | inactive
C=CCC(O)C(=O)OC1CC(C)CCC1C(C)(C)c1ccccc1 (configuration not stated) | active
C[CH2][Ge]([CH2]C)([CH2]C)[O]C(=O)C([O][Ge]([CH2]C)([CH2]C)[CH2]C)c1ccccc1 (configuration not stated) | active
CN(C(=S)c1ccccc1)c1ccccc1 | active
NNCc1cc(Cl)c2cccnc2c1O | active
CN(C)c1c([N+](=O)[O-])cc(N2C(=O)C=CC2=O)cc1[N+](=O)[O-] | active
Cc1cc(SC#N)cc(C)c1O | inactive
COc1ccc(/C=C2\CCC(CN(C)C)C2=O)cc1 (configuration not stated) | active
O=[N+]([O-])c1ccc(N/N=C/COCCO)c([N+](=O)[O-])c1 | inactive
Cc1[nH]nc(-c2ccon2)c1N=O | inactive

* * *

# test.details: NCI Yeast Anticancer Drug Screen. Data for the mlh1 rad18 strain (AID 175)
# test.conditions: S. cerevisiae mlh1 rad18 strain growth inhibition; at 50.0 µM; hits give high values
The panel holds about 79,000 compounds, 15% with a hit somewhere; the sample as a whole holds those more often. Activity calls are given as the source filed them. No stated cut-off is given here; in the data, active means growth inhibition above about 70%; inactive means the rest.
Listing: growth inhibition of selected molecules
experimental.readout: growth inhibition

molecule | experimental.readout | value
Cc1cc([N+](=O)[O-])cc(Cl)c1O | growth inhibition | 80% (active)
OC1(CCc2ccccc2)COC(C(F)(F)F)(C(F)(F)F)C1 (configuration not stated) | growth inhibition | 74.8% (active)
O=C(O)/C(=C\c1ccc(F)cc1)c1ccccc1 | growth inhibition | 50.2% (inactive)
c1ccc(N=C2c3ccsc3C(=Nc3ccccc3)c3ccsc32)cc1 | growth inhibition | 85.6% (active)
Cc1c(C#N)c(N)nc2c(C(N)=O)nsc12 | growth inhibition | 26.2% (inactive)
CCCCCCCCCCCCCCCCCCOP(=O)([O-])OC1CC[N+](C)(C)CC1 | growth inhibition | 92.5% (active)
CC(=O)NC1=C(Oc2ccccc2)C(=O)c2ccccc2C1=O | growth inhibition | 99.1% (active)
c1cc(C2=NCCN2)ccc1Nc1ccc(-c2cc3ccc(C4=NCCN4)cc3[nH]2)cc1 | growth inhibition | 98.5% (active)
CCCN(CCC)CC(O)c1cc(-c2ccccc2)nc2c(Cl)cc(Cl)cc12 (configuration not stated) | growth inhibition | 92.2% (active)
O=C1N[C@H]2[C@H](CS[C@H]2CCCCC(=O)N(CCP(c2ccccc2)c2ccccc2)CCP(c2ccccc2)c2ccccc2)N1 | growth inhibition | -26.7% (inactive)
Cc1cc(N(CCOS(C)(=O)=O)CCOS(C)(=O)=O)ccc1C=Nc1ccc(-c2csc(-c3ccc(Cl)cc3)n2)cc1 | growth inhibition | 94.9% (active)
CC12CC(Br)(Br)C(=O)C3C1CCCC32 | growth inhibition | 87% (active)
CCN(CC)CCN1C(=O)c2c(c3c4cccc(Cl)c4n(C4OC(CO)C(OC)C(O)C4O)c3c3[nH]c4c(Cl)cccc4c23)C1=O (configuration not stated) | growth inhibition | 91% (active)
COC(=O)c1cccc2cccc(C(=O)Nc3ccc(Cl)cc3)c12 | growth inhibition | 90.3% (active)
OC1(C2CCCCC2)c2ccccc2Cc2ccccc21 | growth inhibition | 97% (active)
O=C(O)CSc1nc(-c2ccccc2)c(-c2ccccc2)n1-c1ccccn1 | growth inhibition | 11.2% (inactive)
C=C/C=C/CC=C | growth inhibition | 59.9% (inactive)
CC(C)C1(c2ccccc2)C(=O)c2ccccc2C1=O | growth inhibition | 46.1% (inactive)
CCCCCCCC/C=C\CCCCCCCCN1CCOCC1 | growth inhibition | 99.2% (active)
CC(C)(C)C1=NC(=S)SC2=NC(=O)C3(NN21)c1ccccc1-c1ccccc13 | growth inhibition | 94.9% (active)
C#CC(NCCC(C)CC(C)(C)C)C(C)C (configuration not stated) | growth inhibition | 65.2% (inactive)
OCC(O)C(O)C(O)C(O)C(O)C(/C=N/Nc1ccccc1)=N/Nc1ccccc1 (configuration not stated) | growth inhibition | 66.1% (inactive)
